# stated-conditions: in n-pentanol, 288.15 K
metric-name: solubility (mole fraction)
// return just the number, without any unit appended

// solubility (mole fraction) value for CC(C)(N)C(=O)O : 0.000248

###

# stated-conditions: in n-propanol, 293.15 K
metric-name: solubility (mole fraction)

Lookup result for CC(C)(N)C(=O)O ; measured solubility (mole fraction): 0.000302

###

# stated-conditions: in 2-butanone, 288.15 K
metric-name: solubility (mole fraction)
Number only, no unit.

// CC(C)(N)C(=O)O : solubility (mole fraction) value = 0.000258

###

# stated-conditions: in n-propanol, 283.15 K
metric-name: solubility (mole fraction)
# output: bare number, no unit

molecule CC(C)(N)C(=O)O , solubility (mole fraction) observed: 0.00015

###

# stated-conditions: in water, 303.15 K
metric-name: solubility (mole fraction)
Number only, please.

Given item CC(C)(N)C(=O)O , the value recorded as its solubility (mole fraction) is 0.0269

###

# stated-conditions: in n-butanol, 283.15 K
metric-name: solubility (mole fraction)
Please reply with the number alone, leaving off any unit.

So for CC(C)(N)C(=O)O , the logged solubility (mole fraction) turned out to be 0.000158

###

# stated-conditions: in DMF, 318.15 K
metric-name: solubility (mole fraction)
Note: the reply should be a number with no unit written.

Value of measured solubility (mole fraction) for the entry CC(C)(N)C(=O)O : 0.00356

###

# stated-conditions: in acetone, 293.15 K
metric-name: solubility (mole fraction)

The recorded solubility (mole fraction) for entry CC(C)(N)C(=O)O equals 0.00016

###

# stated-conditions: in 2-butanone, 323.15 K
metric-name: solubility (mole fraction)
Form rule: numeric answer, no unit written next to it.

// solubility (mole fraction) lookup, compound = CC(C)(N)C(=O)O , result: 0.000946

###

# stated-conditions: in methanol, 288.15 K
metric-name: solubility (mole fraction)
The answer should be written as a number, with no unit following it.

Noted for CC(C)(N)C(=O)O : its solubility (mole fraction) reads 0.000658

###

# stated-conditions: in DMF, 283.15 K
metric-name: solubility (mole fraction)
Give the figure only, with no unit attached.

Recorded result, CC(C)(N)C(=O)O , solubility (mole fraction): 5.8e-05

###

# stated-conditions: in n-pentanol, 293.15 K
metric-name: solubility (mole fraction)
Lab note: jot the number down without any unit.

Entry under test: CC(C)(N)C(=O)O . Its solubility (mole fraction) was 0.000302

###

# stated-conditions: in water, 313.15 K
metric-name: solubility (mole fraction)
Reply briefly: the number, and no unit.

Entry CC(C)(N)C(=O)O , solubility (mole fraction) reported as 0.0276

###

# stated-conditions: in acetonitrile, 288.15 K
metric-name: solubility (mole fraction)
Keep it simple and answer with nothing but the number.

// recorded solubility (mole fraction) for CC(C)(N)C(=O)O : 0.00014

###

# stated-conditions: in n-propanol, 313.15 K
metric-name: solubility (mole fraction)

Briefly, solubility (mole fraction) measured for CC(C)(N)C(=O)O : 0.000659

###

# stated-conditions: in n-pentanol, 283.15 K
metric-name: solubility (mole fraction)
Output: the number by itself.

Recorded result, CC(C)(N)C(=O)O , solubility (mole fraction): 0.0002

###

# stated-conditions: in acetone, 323.15 K
metric-name: solubility (mole fraction)
Form rule: numeric answer, no unit written next to it.

# solubility (mole fraction) (compound: CC(C)(N)C(=O)O ) is 0.000501

###

# stated-conditions: in ethanol, 283.15 K
metric-name: solubility (mole fraction)
// no unit, no text: just the number

Sample CC(C)(N)C(=O)O ; solubility (mole fraction) observed: 0.000102

###

# stated-conditions: in DMF, 288.15 K
metric-name: solubility (mole fraction)
Form rule: numeric answer, no unit written next to it.

Recorded solubility (mole fraction) (molecule CC(C)(N)C(=O)O ): 0.00019

###

# stated-conditions: in n-propanol, 288.15 K
metric-name: solubility (mole fraction)
Just the number, please, no unit attached.

solubility (mole fraction) measured on CC(C)(N)C(=O)O = 0.000207

###

# stated-conditions: in ethanol, 288.15 K
metric-name: solubility (mole fraction)

// CC(C)(N)C(=O)O : solubility (mole fraction) value = 0.000183

###

# stated-conditions: in ethanol, 303.15 K
metric-name: solubility (mole fraction)
Format: numeric value only, no unit, no commentary.

Consider CC(C)(N)C(=O)O . Its measured solubility (mole fraction) is 0.000479

###

# stated-conditions: in isopropanol, 308.15 K
metric-name: solubility (mole fraction)

The value of solubility (mole fraction) measured for the compound CC(C)(N)C(=O)O turned out to be 0.000336

###

# stated-conditions: in DMF, 323.15 K
metric-name: solubility (mole fraction)
Write the value as a bare number.

The compound listed as CC(C)(N)C(=O)O shows solubility (mole fraction) equal to 0.00462

###

# stated-conditions: in DMF, 308.15 K
metric-name: solubility (mole fraction)

Reported solubility (mole fraction) for CC(C)(N)C(=O)O was 0.00163

###

# stated-conditions: in methyl acetate, 288.15 K
metric-name: solubility (mole fraction)
// print number alone

The recorded solubility (mole fraction) for entry CC(C)(N)C(=O)O equals 0.000102

###

# stated-conditions: in ethyl acetate, 288.15 K
metric-name: solubility (mole fraction)
Please give the numeric answer without any surrounding text.

Value of solubility (mole fraction) reported for the compound CC(C)(N)C(=O)O is 0.000246

###

# stated-conditions: in acetonitrile, 318.15 K
metric-name: solubility (mole fraction)
No unit in the answer, only the number.

CC(C)(N)C(=O)O yielded solubility (mole fraction) of 0.000317

###

# stated-conditions: in isopropanol, 288.15 K
metric-name: solubility (mole fraction)
Respond numerically, and do not add a unit to the figure.

Per the record, CC(C)(N)C(=O)O has solubility (mole fraction) of 0.000176

###

# stated-conditions: in methyl acetate, 303.15 K
metric-name: solubility (mole fraction)
Number, no unit, nothing else.

Input CC(C)(N)C(=O)O . Output solubility (mole fraction): 0.00021

###

# stated-conditions: in n-propanol, 308.15 K
metric-name: solubility (mole fraction)
No unit in the answer, only the number.

Entry CC(C)(N)C(=O)O ; solubility (mole fraction) = 0.000553

###

# stated-conditions: in acetone, 303.15 K
metric-name: solubility (mole fraction)
Just the number, please, no unit attached.

Consider CC(C)(N)C(=O)O . Its measured solubility (mole fraction) is 0.000253
